# inhibition at 10 µM per record follows
# Test system: LPS-induced microglia activation
# assay: Image-based assay of LPS-induced microglia activation (HTS and dose response)
# Format: cell-based, rat
# settings: Rattus norvegicus, Microglia, primary microglia HTS, 10 μM, LPS-stimulated, cell size >800 μm^2 as marker of activation; read-out: LPS % inhibition
Numeric answer only, unit % assumed.

Please review the entries below; each comes with its answer.
Cc1ccc(C(=O)c2ccc(CC(=O)O)n2C)cc1
28
CCN(CC)CCNC(=O)c1cc(S(C)(=O)=O)ccc1OC [Tiapride]
6
CC(C)(C)NCC(O)c1cc(O)cc(O)c1 (stereo not shown)
28

Data request, read-out inhibition at 10 µM, for NC(=O)NS(=O)(=O)c1ccc(N)cc1 [Sulfacarbamide]
46

###

# System: primary rat microglia
# assay: Cell toxicity (dead cells, size <150 μm2) in coated fibrin (cFib) assay;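 also: share of dead cells sized under 150 µm2 at 10 µM in fibrin-stimulated microglia HTS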
# settings: primary microglia HTS, fibrin stimulation; decreased size (<150 μm^2) as marker of toxicity
Counter-ions that a name gives are not always drawn.
assay_endpoint: Fibrin % cell toxicity (%)
Numeric answer only, unit % assumed.

COCCc1ccc(OCC(O)CNC(C)C)cc1 (stereo not shown)
1

Data request, read-out Fibrin % cell toxicity, for C=C1C[C@H]2[C@@H]3C=C(C)C4=CC(=O)CC[C@]4(C)[C@H]3CC[C@]2(C)[C@@]1(OC(C)=O)C(C)=O [Melengestrol acetate, reference compound]
2

Moving on to the next molecule: "O=C(O)c1cccnc1Nc1cccc(C(F)(F)F)c1"
1

Moving on to the next molecule: "COc1ccc(CCN2CCC(Nc3nc4ccccc4n3Cc3ccc(F)cc3)CC2)cc1"
1

Moving on to the next molecule: "Nc1ccc(O)c(C(=O)O)c1"
1

Moving on to the next molecule: CC1(C)O[C@@H]2C[C@H]3[C@@H]4C[C@H](F)C5=CC(=O)C=C[C@]5(C)[C@@]4(F)[C@@H](O)C[C@]3(C)[C@]2(C(=O)CO)O1 [Fluocinolone acetonide, reference compound]
2

Moving on to the next molecule: CCN(CC)C(=O)c1cccnc1 [Nikethamide]
0

Moving on to the next molecule: COC(=O)[C@@H]1CC2=CC(=O)CC[C@]2(C)[C@@]23O[C@@H]2C[C@@]2(C)[C@@H](CC[C@@]24CCC(=O)O4)[C@H]13 [Eplerenore, reference compound]
2

Moving on to the next molecule: COC(=O)C(N)CS (stereo not shown) [Mecysteine Hydrochloride]
1

Moving on to the next molecule: CC(=O)[C@@]12O[C@](C)(c3ccccc3)O[C@@H]1C[C@H]1[C@@H]3CCC4=CC(=O)CC[C@]4(C)[C@H]3CC[C@@]12C [Algestone acetophenide, reference compound]
1

###

# Test system: fibrin- and LPS-induced microglia activation
# assay: cells
# Assay type: cell-based, rat
# settings: quadrant by fibrin and LPS inhibition in HTS of 1907 compounds
assay_endpoint: Quadrant (FIG. 5b)

Please review the entries below; each comes with its answer.
CC(C(=O)O)c1ccc(-c2ccccc2)c(F)c1 (stereo not shown) [Flurbiprofen]
Q4
CCN(CC)CCNc1ccc(CO)c2sc3ccccc3c(=O)c12 [Hycanthone, reference compound]
Q2
Nc1ccn([C@@H]2O[C@H](CO)[C@@H](O)C2(F)F)c(=O)n1 [Gemcitabine]
Q4
CO/N=C1\CN(c2nc3c(cc2F)c(=O)c(C(=O)O)cn3C2CC2)CC1CN (stereo not shown) [Gemifloxacin]
Q4
Cc1ccc(S(=O)(=O)NC(=O)NN2CCCCCC2)cc1 [Tolazamide, reference compound]
Q3
CCC(=O)O[C@]1(C(=O)CCl)[C@@H](C)C[C@H]2[C@@H]3CCC4=CC(=O)C=C[C@]4(C)[C@@]3(F)[C@@H](O)C[C@@]21C [Clobetasol propionate, reference compound]
Q2

Data request, read-out Quadrant (FIG. 5b), for O=C1[O][Pt]2([NH][C@@H]3CCCC[C@H]3[NH]2)[O]C1=O [Oxaliplatin, reference compound]
Q3
